# System: N. gonorrhoeae WHO F
# assay_procedure: Liquid broth MIC, N. gonorrhoeae WHO F
# Assay type: cell-based
# condition_info: Neisseria gonorrhoeae; N. gonorrhoeae WHO F, liquid broth; read-out: Minimum Inhibitory Concentration, N. gonorrhoeae WHO F
endpoint_label: MIC

| compound | result_value |
| --- | --- |
| NS(=O)(=O)c1ccc(C(NC(=O)N2CCN(CCF)C(=O)C2=O)C(=O)N[C@H]2Cc3cccc(C(=O)O)c3OB2O)cc1 (some centres unmarked) | < 0.125 µg/mL |
| CCN1CCN(C(=O)N[C@H](C(=O)N[C@H]2Cc3ccc(F)c(C(=O)O)c3OB2O)c2ccc(O)c(O)c2Cl)C(=O)C1=O | 4 to 8 µg/mL |
| CC(=O)NCCN1CCN(C(=O)NC(C(=O)N[C@H]2Cc3cccc(C(=O)O)c3OB2O)c2ccc(O)c(O)c2Cl)C(=O)C1=O (some centres unmarked) | 4 to 8 µg/mL |
| CCN1CCN(C(=O)NC(C(=O)N[C@H]2Cc3ccc(F)c(C(=O)O)c3OB2O)c2csc(N)n2)C(=O)C1=O (some centres unmarked) | 0.25 to 0.5 µg/mL |
| NCCN1CCN(C(=O)N[C@@H](C(=O)N[C@H]2Cc3ccc(F)c(C(=O)O)c3OB2O)c2ncc(O)cc2F)C(=O)C1=O | 0.25 to 0.5 µg/mL |
| CCN1CCN(C(=O)N[C@H](C(=O)N[C@H]2Cc3ccc(F)c(C(=O)O)c3OB2O)c2ccc(O)c(F)c2)C(=O)C1=O | 0.25 to 0.5 µg/mL |
| CCN1CCN(C(=O)N[C@@H](C(=O)N[C@H]2Cc3ccc(F)c(C(=O)O)c3OB2O)c2ccc(O)c(O)c2Cl)C(=O)C1=O | 0.25 to 0.5 µg/mL |
| CCN1CCN(C(=O)NC(C(=O)N[C@H]2Cc3ccc(Cl)c(C(=O)O)c3OB2O)c2ncc(O)cc2F)C(=O)C1=O (some centres unmarked) | < 0.125 µg/mL |

Item: CCN1CCN(C(=O)NC(C(=O)N[C@H]2Cc3cccc(C(=O)O)c3OB2O)c2ccc(S(N)(=O)=O)cc2)C(=O)C1=O (some centres unmarked) | MIC: < 0.125 µg/mL

Item: CCN1CCN(C(=O)NC(C(=O)N[C@H]2Cc3cccc(C(=O)O)c3OB2O)c2ncc(O)cc2F)C(=O)C1=O (some centres unmarked) | MIC: < 0.125 µg/mL

Item: CCN1CCN(C(=O)NC(C(=O)N[C@H]2Cc3cccc(C(=O)O)c3OB2O)c2ccc(O)c(O)c2Cl)C(=O)C1=O (some centres unmarked) | MIC: 1 to 2 µg/mL

###

# assayed_system: E. coli PBP3 (Escherichia coli (strain K12))
# Sequence (P0AD68 whole entry): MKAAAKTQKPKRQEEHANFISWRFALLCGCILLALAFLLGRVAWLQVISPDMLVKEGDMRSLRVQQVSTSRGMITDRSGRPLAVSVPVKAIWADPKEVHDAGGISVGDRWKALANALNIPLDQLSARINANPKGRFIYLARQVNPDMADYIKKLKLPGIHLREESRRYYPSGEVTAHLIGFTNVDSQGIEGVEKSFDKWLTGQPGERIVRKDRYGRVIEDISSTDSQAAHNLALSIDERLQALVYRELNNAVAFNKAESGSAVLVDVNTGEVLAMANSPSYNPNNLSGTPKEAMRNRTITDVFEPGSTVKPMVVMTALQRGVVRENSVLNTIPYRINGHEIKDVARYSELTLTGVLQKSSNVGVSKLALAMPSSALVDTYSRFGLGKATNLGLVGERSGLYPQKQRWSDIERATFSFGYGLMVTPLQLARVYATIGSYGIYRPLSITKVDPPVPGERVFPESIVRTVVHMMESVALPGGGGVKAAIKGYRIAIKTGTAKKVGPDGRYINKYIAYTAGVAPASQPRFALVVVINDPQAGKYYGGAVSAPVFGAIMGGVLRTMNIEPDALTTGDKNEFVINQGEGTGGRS
# assay_procedure: E. coli PBP3 Bocillin-FL fluorescence polarization competition binding assay
# condition_info: fluorescence polarization competition binding with Bocillin-FL; read-out: E. coli K12 PBP3 Potency
# Method: To determine the ability of boronic acid-based test PBP inhibitors to bind Penicillin Binding Proteins (PBPs), Bocillin-FL (fluorescently-labeled penicillin V; ThermoFisher Scientific) was used in a fluorescence polarization (FP) competition binding assay to assess inhibitor binding to PBP2, PBP3 or PBP4 from Escherichia coli. […] Bocillin-FL was added and the FP immediately measured for 60 minutes (90 minutes for PBP2). […]
Item-by-item account of EC50

| molecule | assayed_system | endpoint_label | result_value |
| --- | --- | --- | --- |
| CCOC(=O)c1cccc2c1OB(O)[C@@H](NC(=O)C(NC(=O)N1CCN(CC)C(=O)C1=O)c1ncc(O)cc1F)C2 (stereo partly drawn) | E. coli PBP3 (Escherichia coli (strain K12)) | EC50 | > 500 µM |
| CCN1CCN(C(=O)N[C@@H](C(=O)N[C@H]2Cc3cccc(C(=O)O)c3OB2O)c2ccc(O)c(F)c2)C(=O)C1=O | E. coli PBP3 (Escherichia coli (strain K12)) | EC50 | < 30 µM |
| CCN1CCN(C(=O)NC(C(=O)N[C@H]2Cc3cccc(C(=O)O)c3OB2O)c2cc(OC)c(O)c(OC)c2)C(=O)C1=O (stereo partly drawn) | E. coli PBP3 (Escherichia coli (strain K12)) | EC50 | > 500 µM |
| CCN1CCN(C(=O)N[C@H](C(=O)N[C@H]2Cc3cccc(C(=O)O)c3OB2O)c2ncc(O)cc2F)C(=O)C1=O | E. coli PBP3 (Escherichia coli (strain K12)) | EC50 | < 30 µM |
| CCCN1CCN(C(=O)NC(C(=O)N[C@H]2Cc3cccc(C(=O)O)c3OB2O)c2ccc(O)c(O)c2Cl)C(=O)C1=O (stereo partly drawn) | E. coli PBP3 (Escherichia coli (strain K12)) | EC50 | < 30 µM |

Item: C[C@@H](O)[C@@H](NC(=O)N1CCN(CCF)C(=O)C1=O)C(=O)N[C@H]1Cc2cc(O)c(O)c(C(=O)O)c2OB1O | EC50: > 500 µM

Item: NS(=O)(=O)c1ccc([C@@H](NC(=O)N2CCN(CCBr)C(=O)C2=O)C(=O)N[C@H]2Cc3cccc(C(=O)O)c3OB2O)cc1O | EC50: < 30 µM

Item: CCN1CCN(C(=O)NC(C(=O)N[C@H]2Cc3cccc(C(=O)O)c3OB2O)c2cccs2)C(=O)C1=O (stereo partly drawn) | EC50: < 30 µM

Item: CCN1CCN(C(=O)NC(C(=O)N[C@H]2Cc3cccc(C(=O)[O-])c3OB2O)c2ccc[n+](CC(N)=O)c2)C(=O)C1=O (stereo partly drawn) | EC50: > 500 µM

###

# Test system: A. baumannii ATCC 19606
# assay_procedure: Broth microdilution MIC, A. baumannii ATCC 19606
# Type: cell-based
# condition_info: Acinetobacter baumannii, ATCC19606; A. baumannii ATCC 19606, broth microdilution; read-out: MIC A. baumannii ATCC 19606
Item-by-item account of MIC

Illustrative cases are given below, each with its answer.
| molecule | endpoint_label | result_value |
| --- | --- | --- |
| NCCCN1CCN(C(=O)N[C@@H](C(=O)N[C@H]2Cc3ccc(F)c(C(=O)O)c3OB2O)c2ccc(O)c(O)c2Cl)C(=O)C1=O | MIC | < 0.25 µg/mL |
| O=C(O)c1cccc2c1OB(O)[C@@H](NC(=O)C(NC(=O)N1CCN(CCF)C(=O)C1=O)c1ccc(O)c(O)c1Cl)C2 (some centres unmarked) | MIC | 0.5 to 1 µg/mL |
| O=C(O)c1c(F)ccc2c1OB(O)[C@@H](NC(=O)C(NC(=O)N1CCN(CCF)C(=O)C1=O)c1ncc(O)cc1F)C2 (some centres unmarked) | MIC | > 128 µg/mL |
| CCN1CCN(C(=O)NC(C(=O)N[C@H]2Cc3ccc(F)c(C(=O)O)c3OB2O)c2ccc(O)c(O)c2F)C(=O)C1=O (some centres unmarked) | MIC | 8 to 16 µg/mL |
| O=C(O)c1cccc2c1OB(O)[C@@H](NC(=O)C(NC(=O)N1C[C@@H]3CCCN3C(=O)C1=O)c1ccc(O)c(O)c1Cl)C2 (some centres unmarked) | MIC | 32 to 64 µg/mL |
| CCN1CCN(C(=O)NC(C(=O)N[C@H]2Cc3ccc(F)c(C(=O)O)c3OB2O)c2cc(O)c(O)cc2F)C(=O)C1=O (some centres unmarked) | MIC | 2 to 4 µg/mL |
| CCN1CCN(C(=O)NC(C(=O)N[C@H]2Cc3ccc(F)c(C(=O)O)c3OB2O)c2ncc(O)cc2Cl)C(=O)C1=O (some centres unmarked) | MIC | > 128 µg/mL |
| CCN1CCN(C(=O)NC(C(=O)N[C@H]2Cc3ccc(F)c(C(=O)O)c3OB2O)c2ncc(O)cc2F)C(=O)C1=O (some centres unmarked) | MIC | > 128 µg/mL |

Please look at the following molecule next.
Item: C[C@H]1CN(CCO)C(=O)C(=O)N1C(=O)NC(C(=O)N[C@H]1Cc2cccc(C(=O)O)c2OB1O)c1ccc(O)c(O)c1Cl (some centres unmarked) | MIC: < 0.25 µg/mL

###

# Tested on: A. baumannii ATCC 19606
# assay_procedure: Broth microdilution MIC, A. baumannii ATCC 19606
# Format: cell-based
# condition_info: Acinetobacter baumannii, ATCC19606; A. baumannii ATCC 19606, broth microdilution; read-out: MIC A. baumannii ATCC 19606
# Description: To determine the ability of test compounds to potentiate the inhibition of the growth of bacterial strains, classic cell based broth microdilution minimum inhibitory concentration (MIC) assays were employed. […] Briefly, cryo-preserved bacterial cultures of challenge strains are streaked for isolation on appropriate agar medium, in this case Mueller Hinton II agar. […] The MIC values are read visually as the lowest concentration well with no bacterial growth.
Item-by-item account of MIC

Illustrative cases are given below, each with its answer.
| compound | MIC |
| --- | --- |
| O=C(O)c1cccc2c1OB(O)[C@@H](NC(=O)C(NC(=O)N1CCN(CCF)C(=O)C1=O)c1ccc(S(=O)(=O)NCCO)cc1)C2 (stereo partly shown) | > 128 µg/mL |
| CCN1CCN(C(=O)NC(C(=O)N[C@H]2Cc3cccc(C(=O)O)c3OB2O)c2ccc(O)c(O)c2F)C(=O)C1=O (stereo partly shown) | 0.5 to 1 µg/mL |
| CCN1CCN(C(=O)NC(C(=O)N[C@H]2Cc3cccc(C(=O)O)c3OB2O)c2ccc(S(N)(=O)=O)c(F)c2)C(=O)C1=O (stereo partly shown) | > 128 µg/mL |

Item: NS(=O)(=O)c1ccc(C(NC(=O)N2CCN(CCF)C(=O)C2=O)C(=O)N[C@H]2Cc3cccc(C(=O)O)c3OB2O)c(F)c1 (stereo partly shown) | MIC: > 128 µg/mL

These data points were gathered from patent US12173018B2.
